# Target Entity: 72 kDa type IV collagenase (Homo sapiens)
# Sequence (P08253 whole entry): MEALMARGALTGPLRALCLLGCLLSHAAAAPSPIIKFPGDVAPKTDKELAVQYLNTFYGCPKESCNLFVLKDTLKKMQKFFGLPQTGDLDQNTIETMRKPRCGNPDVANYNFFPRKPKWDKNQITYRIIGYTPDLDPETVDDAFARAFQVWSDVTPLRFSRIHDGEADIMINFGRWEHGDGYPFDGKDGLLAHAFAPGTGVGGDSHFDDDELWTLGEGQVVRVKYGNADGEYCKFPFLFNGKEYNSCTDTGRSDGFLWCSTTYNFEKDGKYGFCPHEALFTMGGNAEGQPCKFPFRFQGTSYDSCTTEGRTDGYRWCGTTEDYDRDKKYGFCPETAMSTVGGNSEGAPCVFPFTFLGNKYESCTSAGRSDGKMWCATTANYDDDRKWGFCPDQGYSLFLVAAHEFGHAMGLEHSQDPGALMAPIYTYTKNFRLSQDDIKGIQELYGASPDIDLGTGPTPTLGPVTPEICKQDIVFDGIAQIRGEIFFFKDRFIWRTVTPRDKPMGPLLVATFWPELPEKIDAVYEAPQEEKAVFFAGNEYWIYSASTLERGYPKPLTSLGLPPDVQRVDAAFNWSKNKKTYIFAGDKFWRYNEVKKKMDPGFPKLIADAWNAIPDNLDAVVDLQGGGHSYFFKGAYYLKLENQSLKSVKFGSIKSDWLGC
Parameter Measured: Ki (nM)
Unit nM implied. Number only.

In the examples that follow, each entry is paired with its recorded Ki.
>  <Record Smiles>
O=C(CN(Cc1ccc([N+](=O)[O-])cc1)S(=O)(=O)c1cccs1)NO

>  <Target Entity>
72 kDa type IV collagenase (Homo sapiens)

>  <Parameter Measured>
Ki

>  <Value Reported>
13

$$$$
>  <Record Smiles>
O=C(CN(Cc1ccc([N+](=O)[O-])cc1)S(=O)(=O)c1cccc(NC(=O)NS(=O)(=O)c2ccc(F)cc2)c1)NO

>  <Target Entity>
72 kDa type IV collagenase (Homo sapiens)

>  <Parameter Measured>
Ki

>  <Value Reported>
1.8

$$$$
>  <Record Smiles>
O=C(O)CN(Cc1ccc([N+](=O)[O-])cc1)S(=O)(=O)c1cccc(NC(=O)NS(=O)(=O)c2ccccc2)c1

>  <Target Entity>
72 kDa type IV collagenase (Homo sapiens)

>  <Parameter Measured>
Ki

>  <Value Reported>
19

$$$$

// query Ki value for entry O=C(CN(Cc1ccc([N+](=O)[O-])cc1)S(=O)(=O)c1ccc([N+](=O)[O-])cc1)NO
9
